The values you see were collected from patent US20250346644A1.

# system.tested: T1, hIL2-DM-his (human, UniProt P60568 21-153)
# T1 construct: expressed in ExpiCHO-S cells, nickel-column purified; also called hIL-2 mutein containing two point mutations K64G and N90R (with a his-tag); not shown: his-tag
# experiment: BLI ForteBio, Ab on Protein A sensor
endpoint: kon (M⁻¹ s⁻¹)
Numbers only here, please. The scale is M⁻¹ s⁻¹.

Below are worked cases with known answers.
K1G9 (antibody, V domains shown) VH: QVQLVQSGAEVKKPGATVKISCKVSGDTITAYYMHWVRQAPGQGLEWIGRIDPEDDSTKYAENFKGRVTITADTSTDTAYMELSSLRSEDTAVYYCTTITFLYTRELRWFAYWGQGTLVTVSS VL: DIVLTQSPATLSLSPGERATLSCQASQYISNYLSWYQQKPGQAPRLLIYQATSLASGIPARFSGSRSGTDFTLTISSLEPEDFAVYYCLQHYSTPYTFGQGTKLEIK	333000
K1G8 (antibody, V domains shown) VH: QVQLVQSGAEVKKPGATVKISCKVSGDTITAYYMHWVRQAPGQGLEWIGRIDPEDDSTKYAENFKGRVTITADTSTDTAYMELSSLRSEDTAVYYCTTITFLYSRELRWFAYWGQGTLVTVSS VL: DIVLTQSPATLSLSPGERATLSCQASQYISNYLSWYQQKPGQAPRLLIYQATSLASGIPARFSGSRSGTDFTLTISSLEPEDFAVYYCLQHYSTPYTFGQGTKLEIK	374000
K1G1 (antibody, V domains shown) VH: QVQLVQSGAEVKKPGATVKISCKVSGDTITAYYMHWVRQAPGQGLEWIGRIDPEDDSTKYAENFKGRVTITADTSTDTAYMELSSLRSEDTAVYYCTTVTFYYSRELRWFAYWGQGTLVTVSS VL: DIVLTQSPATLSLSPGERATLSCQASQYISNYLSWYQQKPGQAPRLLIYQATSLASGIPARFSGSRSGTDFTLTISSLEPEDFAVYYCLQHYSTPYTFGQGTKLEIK	343000

# input for lookup
Requested field: kon. Item: K2G5 (antibody, V domains shown) VH: QVQLVQSGAEVKKPGATVKISCKVSGDTITAYYMHWVRQAPGQGLEWIGRIDPEDDSTKYAENFKGRVTITADTSTDTAYMELSSLRSEDTAVYYCTTVTFYYTRELRWFAYWGQGTLVTVSS VL: DIVLTQSPATLSLSPGERATLSCQASQYISNYLSWYQQKPGQAPRLLIYSATSLASGIPARFSGSRSGTDFTLTISSLEPEDFAVYYCLQHYSTPYTFGQGTKLEIK
396000
